Entries and their refractive index
- experimentalProtocol: refractive index (Na D-line) (dimensionless)
- cond: 298.15 K; 100 kPa; Liquid; Standard Abbe refractometry
± gives the expanded uncertainty stated by the source.

The cases that follow already have their refractive index on record.
{"columns": ["molecule", "valueReported"],
 "data": [
  ["CCOC(=O)OCC [diethyl carbonate]", "1.3825 ± 0.0016"],
  ["O=Cc1ccccc1", "1.541 ± 0.0016"],
  ["N#Cc1ccccc1", "1.526 ± 0.0016"]
]}

In the following, a different molecule is considered.
Req: GET /values?readout=refractive index&item= `Nc1ccccc1`
Resp: 1.5826 ± 0.0016

----------
Listing of entries alongside the reported speed of sound.
- cond: 308.15 K; 100 kPa; Liquid; Frequency=3 MHz; Sing-around technique in a fixed-path interferometer
Write down the numeric answer in m/s and omit the unit.

{"columns": ["molecule", "resultUnits", "speed of sound"],
 "data": [
  ["O=Cc1ccccc1", "m/s", 1420.6]
]}

Req: So what's the measured speed of sound for this one? CCOC(=O)OCC [diethyl carbonate]
Resp: 1136.6

Req: Name the reported speed of sound value associated with the molecule `N#Cc1ccccc1`
Resp: 1380.8

Req: Which value of speed of sound has been reported for `Nc1ccccc1` in the records?
Resp: 1598.3

----------
- experimentalProtocol: refractive index (Na D-line) (dimensionless)
- cond: 318.15 K; 100 kPa; Liquid; Standard Abbe refractometry
reportedProperty: refractive index
Form rule: numeric answer, no unit written next to it.

Example entries begin here.
{"columns": ["compound", "valueReported"],
 "data": [
  ["O=Cc1ccccc1 [benzaldehyde]", 1.5307],
  ["N#Cc1ccccc1 [benzonitrile]", 1.5158],
  ["Nc1ccccc1 [aniline]", 1.5694]
]}

As a next step, examine the compound that follows.
Req: GET /values?readout=refractive index&item= CCOC(=O)OCC [diethyl carbonate]
Resp: 1.3733

----------
- cond: 303.15 K; 100 kPa; Liquid; Vibrating tube method
reportedProperty: mass density (kg/m3)
Your answer is read as kg/m3, so omit the unit and give the number.

Req: Consider the molecule shown here: N#Cc1ccccc1 [benzonitrile] What is its recorded mass density?
Resp: 995.9

Req: Quick one: mass density of O=Cc1ccccc1 [benzaldehyde] ?
Resp: 1036.5

Req: Endpoint output: mass density of CCOC(=O)OCC [diethyl carbonate] . Value?
Resp: 963.5

Req: Look up mass density: Nc1ccccc1 [aniline]
Resp: 1012.7

----------
Listed below: speed of sound values for each entry.
- cond: 303.15 K; 100 kPa; Liquid; Frequency=3 MHz; Sing-around technique in a fixed-path interferometer
Your answer should be a plain number; it is taken to be in m/s.

// solved cases for speed of sound follow
{"columns": ["compound", "reportedProperty", "valueReported"],
 "data": [
  ["O=Cc1ccccc1", "speed of sound", 1438.9],
  ["CCOC(=O)OCC [diethyl carbonate]", "speed of sound", 1156.9],
  ["Nc1ccccc1", "speed of sound", 1617.5]
]}

Req: # query: speed of sound of entry `N#Cc1ccccc1`
Resp: 1398.1

----------
Reported values of speed of sound for individual entries
- cond: 313.15 K; 100 kPa; Liquid; Frequency=3 MHz; Sing-around technique in a fixed-path interferometer
Kindly provide the numeric value in m/s only, without the unit symbol.

Reference set, count: 3
{"columns": ["molecule", "reportedProperty", "resultUnits", "valueReported"],
 "data": [
  ["Nc1ccccc1 [aniline]", "speed of sound", "m/s", 1579.1],
  ["N#Cc1ccccc1 [benzonitrile]", "speed of sound", "m/s", 1363.6],
  ["O=Cc1ccccc1 [benzaldehyde]", "speed of sound", "m/s", 1402.4]
]}

From here, focus on the item given below.
Req: Would you mind telling me what speed of sound value was observed for CCOC(=O)OCC [diethyl carbonate] ?
Resp: 1116.5

----------
- cond: 323.15 K; 100 kPa; Liquid; Vibrating tube method
± gives the expanded uncertainty stated by the source.
reportedProperty: mass density

Some solved cases for reference:
{"columns": ["molecule", "mass density"],
 "data": [
  ["Nc1ccccc1", "995.4 ± 1 kg/m3"],
  ["CCOC(=O)OCC [diethyl carbonate]", "940.7 ± 1 kg/m3"],
  ["N#Cc1ccccc1", "977.9 ± 1 kg/m3"]
]}

Req: Recorded mass density for `O=Cc1ccccc1` , please?
Resp: 1018.4 ± 1 kg/m3

----------
- experimentalProtocol: refractive index (Na D-line) (dimensionless)
- cond: 303.15 K; 100 kPa; Liquid; Standard Abbe refractometry
reportedProperty: refractive index
No unit in the answer, please; the number alone is enough.

Previously resolved entries follow.
{"columns": ["compound", "refractive index"],
 "data": [
  ["N#Cc1ccccc1 [benzonitrile]", 1.5235],
  ["CCOC(=O)OCC [diethyl carbonate]", 1.3802],
  ["O=Cc1ccccc1 [benzaldehyde]", 1.5383]
]}

Req: Look up refractive index for this compound: Nc1ccccc1 [aniline]
Resp: 1.5793

----------
// reported speed of sound per item
- cond: 318.15 K; 100 kPa; Liquid; Frequency=3 MHz; Sing-around technique in a fixed-path interferometer
The answer is to be given in m/s; state only the numeric part.

{"columns": ["molecule", "speed of sound, m/s"],
 "data": [
  ["N#Cc1ccccc1", 1346.5],
  ["Nc1ccccc1", 1560],
  ["O=Cc1ccccc1", 1384.4]
]}

Here is another molecule to look at.
Req: Find the recorded speed of sound belonging to CCOC(=O)OCC [diethyl carbonate] and report it.
Resp: 1096.5

----------
This listing pairs compounds with measured refractive index.
- experimentalProtocol: refractive index (Na D-line) (dimensionless)
- cond: 308.15 K; 100 kPa; Liquid; Standard Abbe refractometry
Please state the value as a number alone, without comment.

{"columns": ["compound", "valueReported"],
 "data": [
  ["CCOC(=O)OCC [diethyl carbonate]", 1.3779],
  ["O=Cc1ccccc1", 1.5357],
  ["Nc1ccccc1", 1.576]
]}

API: the following record is the query input.
Req: Please report the recorded refractive index for `N#Cc1ccccc1` .
Resp: 1.5209

----------
- cond: 308.15 K; 100 kPa; Liquid; Vibrating tube method
reportedProperty: mass density (kg/m3)
Entry rule: numbers only, all in kg/m3.

Field: example entries. Status: answers known.
{"columns": ["molecule", "mass density (kg/m3)"],
 "data": [
  ["Nc1ccccc1 [aniline]", 1008.4],
  ["N#Cc1ccccc1 [benzonitrile]", 991.4],
  ["CCOC(=O)OCC [diethyl carbonate]", 957.8]
]}

Now consider the entry below.
Req: What does the record list as mass density for O=Cc1ccccc1 [benzaldehyde] ?
Resp: 1032

----------
- experimentalProtocol: refractive index (Na D-line) (dimensionless)
- cond: 313.15 K; 100 kPa; Liquid; Standard Abbe refractometry
reportedProperty: refractive index
Output spec: single numeric token, no unit.

{"columns": ["molecule", "refractive index"],
 "data": [
  ["O=Cc1ccccc1 [benzaldehyde]", 1.5332],
  ["N#Cc1ccccc1 [benzonitrile]", 1.5184],
  ["Nc1ccccc1 [aniline]", 1.5727]
]}

# next molecule below
Req: What refractive index value was documented for this molecule, CCOC(=O)OCC [diethyl carbonate] ?
Resp: 1.3756

----------
- cond: 298.15 K; 100 kPa; Liquid; Vibrating tube method
Here, each record is paired with measured mass density data.
Your answer should be a plain number; it is taken to be in kg/m3.

Recorded mass density, per entry:
{"columns": ["compound", "resultUnits", "mass density"],
 "data": [
  ["Nc1ccccc1", "kg/m3", 1017.1],
  ["CCOC(=O)OCC [diethyl carbonate]", "kg/m3", 969.1],
  ["N#Cc1ccccc1", "kg/m3", 1000.6]
]}

Read the next record carefully.
Req: Quick one: mass density for `O=Cc1ccccc1` ?
Resp: 1041

----------
Below, each entry is listed with its recorded mass density.
- cond: 313.15 K; 100 kPa; Liquid; Vibrating tube method
± gives the expanded uncertainty stated by the source.

Here's what some known entries look like.
{"columns": ["molecule", "mass density"],
 "data": [
  ["Nc1ccccc1", "1004.1 ± 1 kg/m3"],
  ["CCOC(=O)OCC [diethyl carbonate]", "952.1 ± 1 kg/m3"],
  ["N#Cc1ccccc1", "986.9 ± 1 kg/m3"]
]}

Read the next record carefully.
Req: So what does the record say about mass density for `O=Cc1ccccc1` ?
Resp: 1027.5 ± 1 kg/m3

----------
We begin with a simple list: items and their reported refractive index.
- experimentalProtocol: refractive index (Na D-line) (dimensionless)
- cond: 323.15 K; 100 kPa; Liquid; Standard Abbe refractometry
Answer with a number only.

Req: Please report the recorded refractive index for N#Cc1ccccc1 [benzonitrile] .
Resp: 1.5133

Origin of measurements: the NIST ThermoML archive (doi:10.1016/j.jct.2016.08.001)
